Cited source for all entries: patent US11905274B2

pIC50 values recorded for AT2 Receptor (AT2R) (Homo sapiens (Human))
# pIC50 = -log10(concentration in molar units)

Look up pIC50 for this compound: Cc1cc(CN(C(=O)N2CCN(C(=O)N(c3ccccc3)c3ccccc3)[C@H](C(=O)O)C2)C2CC2)cs1 [Compound C146] 7.85

Another compound to check: CN(Cc1ccccc1)C(=O)N1CCN(C(=O)C2(c3ccccc3)CCCCC2)[C@H](C(=O)O)C1 [Compound C87] 6.41

Also CCN(Cc1ccsc1)C(=O)N1CCN(C(=O)N2c3ccccc3CC(=O)c3ccccc32)[C@H](C(=O)O)C1 [Compound C79] ? 6.34

Another compound to look at: O=C(O)[C@@H]1CN(C(=O)C(c2ccccc2)c2ccccc2)CCN1C(=O)N1c2ccccc2Sc2ccccc21 [Compound C21] 6.72

Entry to check: O=C(O)[C@@H]1CN(C(=O)N2c3ccccc3CCc3ccccc32)CCN1C(=O)N1c2ccccc2CCc2ccccc21 [Compound C76] 6.81

----------
- target under test: AT2 Receptor (AT2R) (Homo sapiens (Human))
- Sequence (P50052 whole entry): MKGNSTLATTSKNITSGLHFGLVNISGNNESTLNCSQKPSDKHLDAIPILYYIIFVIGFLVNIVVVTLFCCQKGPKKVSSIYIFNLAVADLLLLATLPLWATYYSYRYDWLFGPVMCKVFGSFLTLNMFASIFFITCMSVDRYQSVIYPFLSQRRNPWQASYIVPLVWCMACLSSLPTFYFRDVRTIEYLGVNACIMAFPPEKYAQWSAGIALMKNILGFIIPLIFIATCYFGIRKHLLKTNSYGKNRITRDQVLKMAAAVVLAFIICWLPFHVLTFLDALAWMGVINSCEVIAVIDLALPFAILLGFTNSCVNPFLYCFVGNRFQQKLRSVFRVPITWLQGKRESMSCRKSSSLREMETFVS
For each record, write down the corresponding IC50.
Write down the numeric answer in µM and omit the unit.

Look up IC50 for this compound: CCN(Cc1csc(C)c1)C(=O)N1CCN(C(=O)N(c2ccccc2)c2ccccc2)[C@H](C(=O)O)C1 [Compound C137] 0.0365

Also check O=C1Cc2ccccc2N(C(=O)N2CCN(C(=O)N(c3ccc(F)cc3)c3ccc(F)cc3)C[C@H]2C(=O)O)c2ccccc21 [Compound C105] 0.161

Repeat with O=C1Cc2ccccc2N(C(=O)N2CCN(C(=O)N(c3ccccc3)c3ccccc3)C[C@H]2C(=O)O)c2ccccc21 [Compound C77] 0.0323

Cool, now O=C(O)[C@@H]1CN(C(=O)N2c3ccccc3Sc3ccccc32)CCN1C(=O)C(c1ccccc1)c1ccccc1 [Compound C12] 0.0437
